system: turtle Estrogen Receptor (ESR1), gene 101933533; test: ATG_trERa_XSP1: Attagene TRANS-FACTORIAL Multi-Species (XSP1) HepG2 Assay for turtle Estrogen Receptor (ESR1) (AID 2283781)
Records with an inconclusive call do not appear. The source made the active and inactive calls. How the source made its calls: active means hit-call score of the fitted dose curve at least 0.9, where 1 is the maximum; inconclusive means response in the unintended direction; inactive means score below 0.9.
Labels: y (active), n (inactive)

{"Compound": "COP(=S)(OC)Oc1nc(Cl)c(Cl)cc1Cl", "Tgt": "turtle Estrogen Receptor (ESR1), gene 101933533", "Class Label": "y"}
{"Compound": "CCCCOC(=O)c1ccccc1C(=O)OCCCC", "Tgt": "turtle Estrogen Receptor (ESR1), gene 101933533", "Class Label": "n"}
{"Compound": "C#CCOS(=O)OC1CCCCC1Oc1ccc(C(C)(C)C)cc1 (configuration not stated)", "Tgt": "turtle Estrogen Receptor (ESR1), gene 101933533", "Class Label": "y"}
{"Compound": "CON(C)C(=O)Nc1ccc(Cl)c(Cl)c1", "Tgt": "turtle Estrogen Receptor (ESR1), gene 101933533", "Class Label": "y"}
{"Compound": "CC(C)Oc1cc(-n2nc(C(C)(C)C)oc2=O)c(Cl)cc1Cl", "Tgt": "turtle Estrogen Receptor (ESR1), gene 101933533", "Class Label": "y"}
{"Compound": "CCCN(CCC)c1c([N+](=O)[O-])cc(S(N)(=O)=O)cc1[N+](=O)[O-]", "Tgt": "turtle Estrogen Receptor (ESR1), gene 101933533", "Class Label": "y"}
{"Compound": "CC(C)(C)c1ccc(CSc2cnn(C(C)(C)C)c(=O)c2Cl)cc1", "Tgt": "turtle Estrogen Receptor (ESR1), gene 101933533", "Class Label": "n"}

Values from PubChem BioAssay (EPA / NIEHS)
